- System: K-562 leukemia
- Assay Details: NCI tumour cell line growth inhibition, 48 h
Assay Readout: TGI

Some compounds with recorded TGI:
Compound	TGI
CC1=C(C(=O)Nc2ccc(F)c(Cl)c2)C(c2ccccc2O)NC(=O)N1 (stereo not drawn)	> 100 µM
O/N=C1/C2CC3CC1(c1ccccc1)CC(/C3=N/O)/C2=N\O (stereo not drawn)	> 100 µM

Req: Query (compound): C=C(Br)CNCC(=C)Br ; field requested: TGI
Resp: > 100 µM

----------
- System: HCC-2998 colon
- Assay Details: NCI tumour cell line growth inhibition, 48 h
Assay Readout: TGI

Some compounds with recorded TGI:
Compound	Result
CCN(CC)CCCC(C)Nc1c(Sc2cnc3cc(Cl)ccc3c2NC(C)CCCN(CC)CC)cnc2cc(Cl)ccc12 (stereo not drawn)	1.14 µM
OC(CCN1CCN(CCOC(c2ccccc2)c2ccccc2)CC1)c1ccc(Br)cc1 (stereo not drawn)	3.96 µM

Field: next compound
Req: Query (compound): CCCCc1c2c(nc3c1CCc1cc4cc5c(nc4nc1-3)-c1nc3c(c(CCCC)c1CC5)CCC/C3=C\c1ccccc1)/C(=C/c1ccccc1)CCC2 ; field requested: TGI
Resp: > 100 µM

----------
Recorded TGI by entry
- Test system: RPMI-8226 leukemia
- Assay Details: NCI tumour cell line growth inhibition, 48 h

Some molecules with recorded TGI:
NC(=O)C12CC3CC(CC(Br)(C3)C1)C2 > 100 µM
CC1=C(Cl)C[C@@H](/C(C)=C\Cl)O[C@@]1(O)C(Br)Br 65.8 µM

Field: next molecule
Req: State its TGI on RPMI-8226 leukemia: COc1ccc2c(c1)C(=O)c1c-2n(CCCN)c(=O)c2cc([N+](=O)[O-])ccc12
Resp: < 0.0222 µM

----------
- System: MDA-N
- Assay Details: NCI tumour cell line growth inhibition, 48 h
Assay Readout: TGI

Molecule	Test Target	Result
CC(NNC(=O)c1ccncc1)c1ccc(Cl)c(Cl)c1 (stereo not drawn)	MDA-N	> 100 µM
CN(CCc1ccc(Cl)c(Cl)c1)CCN(C)CCN1CCCC1	MDA-N	3.74 µM

Field: next molecule
Req: State its TGI on MDA-N: c1csc(-c2csc(-c3ccsc3)c2)c1
Resp: > 100 µM

----------
- System: NCI-H226 lung
- Assay Details: NCI tumour cell line growth inhibition, 48 h
Assay Readout: TGI

Compound	Test Target	TGI
C[C@@H]1CC[C@@H](C)[C@](C)(CCc2ccoc2)C/C=C\C=C/1C(=O)O	NCI-H226 lung	> 50 µM
Cc1ccc(SC[C@@]2(C(F)F)NC(=O)NC2=O)cc1	NCI-H226 lung	> 100 µM

Req: Query (compound): Cc1cc(NC(=O)c2cnc(N3CCN(CCOCCOCCOCCOCCC(=O)N[C@H](C(=O)N4C[C@H](O)C[C@H]4C(=O)N[C@@H](C)c4ccc(-c5scnc5C)cc4)C(C)(C)C)CC3)cn2)c2ncccc2c1 ; field requested: TGI
Resp: > 100 µM

Req: Query (compound): COc1cc(OC)cc(-n2c(N)c(-c3nc4ccccc4n3C)c3ccc([N+](=O)[O-])cc3c2=O)c1 ; field requested: TGI
Resp: > 100 µM

Req: Query (compound): CC1=C(C(=O)Nc2ccc(F)c(Cl)c2)C(c2ccccc2O)NC(=O)N1 (stereo not given) ; field requested: TGI
Resp: > 100 µM

----------
Recorded TGI by entry
- Tested on: A498 renal
- Assay Details: NCI tumour cell line growth inhibition, 48 h

Some compounds with recorded TGI:
Compound	Assay Readout	Result
NC(=O)C12CC3CC(CC(Br)(C3)C1)C2	TGI	> 100 µM
C#C[C@H]1CCCCCC1O (stereo not given in full)	TGI	> 100 µM
Cc1c(C#N)c2nnn(-c3ccccc3)c(=O)n2c1-c1ccccc1	TGI	> 25.1 µM
O=C(NN1C(=O)CSC1c1ccc(F)cc1)C(O)c1ccccc1 (stereo not given)	TGI	> 100 µM

Req: State its TGI on A498 renal: C#CCSc1nc(N)c2ncn(C3OC(COP(=O)(O)O)C(O)C3O)c2n1 (stereo not given)
Resp: > 239 µM

----------
- System: A549 NSCLC
- Assay Details: NCI tumour cell line growth inhibition, 48 h
Recorded TGI by entry

Some compounds with recorded TGI:
Compound	TGI
CCOC1OC(=O)[C@H]2[C@@H]1[C@@H]1CC[C@H]2O1 (stereo partly specified)	> 100 µM
COc1cc2c(cc1C)NC(=O)/C2=C\c1ccncc1	66.5 µM
NNc1c2ccccc2nc2ccccc12	> 100 µM

Req: Query (compound): NS(=O)(=O)c1cccc(-c2ccc3c(NC(=O)C4CC4)n[nH]c3c2)c1 ; field requested: TGI
Resp: > 25 µM

Req: Query (compound): Nc1n[nH]c(N)c1N=Nc1ccc(O)cc1 ; field requested: TGI
Resp: > 100 µM

Req: Query (compound): CC1(C)CC2=C(Sc3ccccc3N2)C(=O)C1C(=O)C(=O)Nc1cc(Cl)ccc1Cl (stereo unspecified) ; field requested: TGI
Resp: > 100 µM

----------
- System: SK-MEL-28 melanoma
- Assay Details: NCI tumour cell line growth inhibition, 48 h; in the data active means GI50 below about 0.43 µM; inactive means the rest
Answer with one of the outcomes active, inactive

Below are worked cases with known answers.
Compound	Label Value
COc1ccc2c(c1)C(=O)c1c-2c(N2CCNCC2)nc2ccccc12	inactive
COc1cccc(C2C(C#N)=C(N)Oc3c2ccc2ccccc32)c1 (stereo unspecified)	inactive
CC(=O)[CH-]C(=O)Nc1ccccc1.CC(=O)[CH-]C(=O)Nc1ccccc1.CC[O-].CC[O-].[Ti+4]	inactive
Nc1ncccc1-c1nc2ccc(-c3ccccc3)nc2n1-c1ccc(C2(N)CCC2)cc1	inactive
O=c1c(-c2ccccc2)coc2cc(OC/C(=N/O)c3ccc(F)cc3)ccc12	inactive
COc1cc(C2CC(=O)Nc3c2cc(Br)c2ccccc32)cc(Br)c1OC (stereo unspecified)	inactive

Req: Identify the outcome logged in this assay for the compound shown: CCN(C(=O)CN1CCN(c2cc3c(cc2F)c(=O)c(C(=O)O)cn3CC)CC1)c1nc(-c2ccccc2)cs1
Resp: inactive

Req: Identify the outcome logged in this assay for the compound shown: C=CCCCOC1[C@H](OCc2ccccc2)C(OCc2ccccc2)C(OC)O[C@@H]1CNC(=O)c1cccc(I)c1 (stereo partly specified)
Resp: inactive

----------
- Tested on: OVCAR-4 ovarian
- Assay Details: NCI tumour cell line growth inhibition, 48 h
Assay Readout: TGI

Some compounds with recorded TGI:
Compound	TGI
COc1ccc(/C(=N/Nc2nc3ccccc3[nH]2)C(=O)O)cc1	> 100 µM
O=c1cccc(C#CC#CCCCO)o1	> 57.9 µM
Nc1cc2cccc[n+]2c2cccc(Cl)c12	72.8 µM
NS(=O)(=O)c1cccc(-c2ccc3c(NC(=O)C4CC4)n[nH]c3c2)c1	> 25 µM
CC(NNC(=O)c1ccncc1)c1ccc(Cl)c(Cl)c1 (stereo unspecified)	> 100 µM
CCOC(=O)c1c(N2CCOCC2)[nH]c(=O)c(C(c2cccs2)c2c(O)c(C(=O)OCC)c(N3CCOCC3)[nH]c2=O)c1O	> 100 µM
COCCOCOC(C)(C)[C@H](CCOC(C)=O)O[Si](c1ccccc1)(c1ccccc1)C(C)(C)C	> 100 µM
COc1ccc2c(c1)/C(=C\c1c[nH]c3ccc(OC)cc13)C(=O)N2	22.8 µM
Cc1ccc(NC(=O)CC2SC(N)=NC2=O)cc1C (stereo unspecified)	> 100 µM
COc1nc(OC)nc(-c2cccc(F)c2)n1	39.6 µM

Req: Query (compound): CCn1c2ccc(O)c(C(=O)OC)c2c2cc3ccccc3c(O)c21 ; field requested: TGI
Resp: 75.1 µM

Req: Query (compound): COc1ccc2c(c1)CC1Cc3ccccc3CCN1C2 (stereo unspecified) ; field requested: TGI
Resp: > 100 µM

Req: Query (compound): CCN(C(=O)CN1CCN(c2cc3c(cc2F)c(=O)c(C(=O)O)cn3CC)CC1)c1nc(-c2ccccc2)cs1 ; field requested: TGI
Resp: > 100 µM

----------
- Tested on: UO-31 renal
- Assay Details: NCI tumour cell line growth inhibition, 48 h
Assay Readout: TGI

Compound	Test Target	TGI
CCOC1OC(=O)[C@H]2[C@@H]1[C@@H]1CC[C@H]2O1 (stereo partly drawn)	UO-31 renal	> 100 µM
Cc1cc(S(=O)(=O)Nc2nc3ccccc3n2-c2ccccc2)c(S)cc1Cl	UO-31 renal	> 100 µM

Req: Query (compound): NCCC(=O)NC(Cc1cnc[nH]1)C(=O)O (stereo not drawn) ; field requested: TGI
Resp: > 100 µM

----------
Recorded TGI by entry
- Tested on: SF-295 CNS
- Assay Details: NCI tumour cell line growth inhibition, 48 h

Some molecules with recorded TGI:
Molecule	Assay Readout	Result
CC(=O)c1ccc(N2CCN(C3=CC(=O)c4c(O)ccc(O)c4C3=O)CC2)cc1	TGI	> 100 µM
O=C1c2ccccc2C(=O)N1C1(C(=O)NC2(C(=O)O)CCCC2)CCCC1	TGI	> 100 µM
O=C(NN1C(=O)CSC1c1ccc(F)cc1)C(O)c1ccccc1 (centres undefined)	TGI	> 100 µM

Field: next molecule
Req: Query (molecule): COc1cccc2c1[C@H]1CO[C@H]3C4C[C@H](C(=O)O)C([C@@H](C2)N13)N4C (some centres undefined) ; field requested: TGI
Resp: > 41.8 µM
